tested on: Rattus norvegicus; experiment: Anti-inflammatory activity in rat assessed as reduction of carrageenan-induced paw edema at 150 umol/kg, ip after 3.5 hrs relative to control; assay type: functional
inhibition in vivo at 150 µmol/kg reference
Respond with the bare value in %.

Cc1cccc(Nc2ccccc2C(=O)N2CCSCC2)c1C    46
CC(C(=O)N1CCSCC1)c1cccc(C(=O)c2ccccc2)c1 (stereo unspecified)    60
COc1ccc2cc([C@H](C)C(=O)O)ccc2c1    11
O=C(O)c1ccccc1Nc1cccc(C(F)(F)F)c1    19
CC(C)Cc1ccc(C(C)C(=O)O)cc1 (stereo unspecified)    36

Data request: Which inhibition in vivo at 150 µmol/kg value belongs to O=C(CCCCC1CCSS1)N1CCSCC1 (stereo unspecified) ?
Data returned: 59

Data request: Cool, now `O=C(Cc1c[nH]c2ccccc12)N1CCSCC1`
Data returned: 29

Data request: Cool, now `COc1ccc2c(c1)c(CC(=O)O)c(C)n2C(=O)c1ccc(Cl)cc1`
Data returned: 42

Data request: Cool, now `COc1ccc2c(c1)c(CC(=O)N1CCSCC1)c(C)n2C(=O)c1ccc(Cl)cc1`
Data returned: 38

Data request: Cool, now `O=C(c1ccccc1Nc1cccc(C(F)(F)F)c1)N1CCSCC1`
Data returned: 44

Data request: Cool, now `O=C(Cc1ccccc1Nc1c(Cl)cccc1Cl)N1CCSCC1`
Data returned: 40

----------
inhibition in vivo at 150 µmol/kg reference
tested on: Rattus norvegicus; test: Antihyperlipidemic activity in rat assessed as reduction of tyloxapol-induced plasma triglyceride level at 150 umol/kg, ip after 24 hrs relative to control; type: functional
Respond with the bare value in %.

# example entries with known answers
O=C(c1ccccc1Nc1cccc(C(F)(F)F)c1)N1CCSCC1    54.1
COc1ccc2cc(C(C)C(=O)N3CCSCC3)ccc2c1 (stereo not drawn)    61.3
Cc1c(Cl)cccc1Nc1ccccc1C(=O)N1CCSCC1    80
CC(C(=O)N1CCSCC1)c1cccc(C(=O)c2ccccc2)c1 (stereo not drawn)    43

Data request: So what inhibition in vivo at 150 µmol/kg did CC(C)Cc1ccc(C(C)C(=O)N2CCSCC2)cc1 (stereo not drawn) get with Rattus norvegicus?
Data returned: 64.2

Data request: Cool, now `COc1ccc2c(c1)c(CC(=O)N1CCSCC1)c(C)n2C(=O)c1ccc(Cl)cc1`
Data returned: 79.5

Data request: Cool, now `Cc1cccc(Nc2ccccc2C(=O)N2CCSCC2)c1C`
Data returned: 81.5

Data request: Cool, now `O=C(Cc1ccccc1Nc1c(Cl)cccc1Cl)N1CCSCC1`
Data returned: 46.4

----------
test system: Rattus norvegicus; assay: Antihyperlipidemic activity in rat assessed as reduction of tyloxapol-induced plasma total cholesterol level at 150 umol/kg, ip after 24 hrs relative to control; format: functional
Classify by measured inhibition in vivo at 150 µmol/kg: MET if it is equal to or exceeds 60%, NOT MET if it is smaller.

O=C(c1ccccc1Nc1cccc(C(F)(F)F)c1)N1CCSCC1    NOT MET

Data request: Check the entry COc1ccc2cc(C(C)C(=O)N3CCSCC3)ccc2c1 (stereo not drawn) : does inhibition in vivo at 150 µmol/kg equal or exceed 60%?
Data returned: NOT MET

Data request: Cool, now CC(C(=O)N1CCSCC1)c1cccc(C(=O)c2ccccc2)c1 (stereo not drawn)
Data returned: NOT MET

These measurements were taken from ChEMBL document CHEMBL3751779.
